Would you kindly list pIC50 for each of these molecules?
- Experimental target: BCR-NTRK3 BaF3 cells (Homo sapiens)
- Construct: fused on or other part: P11274 (Breakpoint cluster region protein)
- Sequence (Q16288 whole entry, the tested form may be a part): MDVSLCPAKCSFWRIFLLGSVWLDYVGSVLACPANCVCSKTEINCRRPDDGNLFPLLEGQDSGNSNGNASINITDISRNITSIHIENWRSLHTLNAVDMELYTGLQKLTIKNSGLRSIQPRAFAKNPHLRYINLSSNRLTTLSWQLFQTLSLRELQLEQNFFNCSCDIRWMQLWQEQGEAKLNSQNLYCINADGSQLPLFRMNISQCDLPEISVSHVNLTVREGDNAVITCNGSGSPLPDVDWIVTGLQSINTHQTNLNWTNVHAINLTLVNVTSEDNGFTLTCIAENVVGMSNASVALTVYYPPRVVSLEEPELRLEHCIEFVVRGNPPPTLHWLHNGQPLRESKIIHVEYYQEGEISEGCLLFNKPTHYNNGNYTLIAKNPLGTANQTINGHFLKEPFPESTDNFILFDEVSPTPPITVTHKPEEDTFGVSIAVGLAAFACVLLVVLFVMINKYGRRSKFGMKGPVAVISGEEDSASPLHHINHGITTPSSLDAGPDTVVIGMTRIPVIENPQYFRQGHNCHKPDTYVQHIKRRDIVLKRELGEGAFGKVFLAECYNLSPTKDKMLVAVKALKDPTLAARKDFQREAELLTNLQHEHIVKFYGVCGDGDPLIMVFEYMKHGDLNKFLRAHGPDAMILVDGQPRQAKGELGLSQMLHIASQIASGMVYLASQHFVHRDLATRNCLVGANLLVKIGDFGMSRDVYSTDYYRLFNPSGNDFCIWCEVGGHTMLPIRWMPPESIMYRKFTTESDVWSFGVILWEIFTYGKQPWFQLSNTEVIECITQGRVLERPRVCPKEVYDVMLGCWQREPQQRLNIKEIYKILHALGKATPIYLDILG
- Assay summary: BaF3 BCR-NTRK3 cell proliferation assay (ATPlite)
- Settings: read-out: Inhibition of Cell Proliferation IC50, BCR/BaF3 TrkC
pIC50: −log10 of the molar value.

// solved cases for pIC50 follow
Cc1cncc(Nc2ccc(C(=O)c3c[nH]c4ncnc(C5CC5)c34)c(F)n2)c1 [Compound P-4039]    > 7.00
CCc1ccc(Nc2ccc(Cc3c[nH]c4ncnc(OCCOC)c34)c(F)n2)cn1 [Compound P-4016]    > 8.00

Then there is this molecule:
Sample CCOc1ncnc2[nH]cc(Cc3ccc(Nc4ccc(Br)nc4)nc3F)c12 [Compound P-4020] — what was its pIC50?
> 7.00

---

- Experimental target: BCR-NTRK1 BaF3 cells (Homo sapiens, UniProt P04629)
- Construct: fused on or other part: P11274 (Breakpoint cluster region protein)
- Sequence (P04629 510-781): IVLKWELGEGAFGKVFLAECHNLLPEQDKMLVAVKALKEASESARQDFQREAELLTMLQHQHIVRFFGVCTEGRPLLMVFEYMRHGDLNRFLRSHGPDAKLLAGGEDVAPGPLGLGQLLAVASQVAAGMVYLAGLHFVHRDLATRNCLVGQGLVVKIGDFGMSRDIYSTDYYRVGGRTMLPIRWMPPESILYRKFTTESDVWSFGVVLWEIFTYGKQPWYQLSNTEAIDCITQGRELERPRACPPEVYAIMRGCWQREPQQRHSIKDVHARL
- Assay summary: BaF3 BCR-NTRK1 cell proliferation assay (ATPlite)
- Settings: read-out: Inhibition of Cell Proliferation IC50, BCR/BaF3 TrkA
pIC50: −log10 of the molar value.
Property measured: pIC50

Before answering, review these 5 worked examples.
Fc1nc(Nc2ccc(C3CC3)nc2)ccc1Cc1c[nH]c2ncnc(NCC(F)(F)F)c12    > 7.00
CSc1ccc(Nc2ncc(Cc3c[nH]c4ncc(C)cc34)cn2)cc1    > 7.00
COc1ccc(Nc2ccc(C(=O)c3c[nH]c4ncnc(NC5CCCCC5)c34)c(F)n2)cn1    > 8.00
COc1ncnc2[nH]cc(Cc3ccc(Nc4ccc(Cl)nc4)nc3F)c12    > 6.00
COCCCNc1ncnc2[nH]cc(C(=O)c3ccc(Nc4ccc(OC)nc4)nc3F)c12    > 8.00

Items follow; give pIC50 for each.
1. Clc1cnc2[nH]cc(Cc3cnc(NC4CC4)nc3)c2c1
2. COc1ccc(Nc2ccc(C(=O)c3c[nH]c4ncnc(NCC5CCCO5)c34)c(F)n2)cn1 (centres unmarked)
3. COc1ccc(Nc2ccc(C(=O)c3c[nH]c4ncnc(NC5CCC(F)(F)CC5)c34)c(F)n2)cn1
4. CNc1ncnc2[nH]cc(C(=O)c3ccc(Nc4ccc(OC)nc4)nc3OC)c12

1: < 5.00; 2: > 7.00; 3: > 6.00; 4: > 6.00

Give pIC50 for each of the items listed below.
1. CCOc1ccc(Nc2ccc(Cc3c[nH]c4ncc(C)cc34)c(F)n2)cn1
2. Cc1cnc2[nH]cc(Cc3cnc(Nc4cc(C(F)(F)F)n[nH]4)nc3)c2c1
3. CCc1ccc(Nc2ccc(Cc3c[nH]c4ncnc(C)c34)c(F)n2)cn1

1. > 6.00
2. < 6.00
3. > 7.00

Can you give me pIC50 for all of these, one by one?
1. CCc1ccc(Nc2ccc(Cc3c[nH]c4ncnc(C5CC5)c34)c(F)n2)cn1
2. CC(C)Nc1ncnc2[nH]cc(C(=O)c3ccc(NC4CCCCC4)nc3Cl)c12

> 8.00
> 6.00

---

- Experimental target: BCR-FMS BaF3 cells (Homo sapiens)
- Construct: fused on or other part: P11274 (Breakpoint cluster region protein)
- Sequence (P07333 582-910): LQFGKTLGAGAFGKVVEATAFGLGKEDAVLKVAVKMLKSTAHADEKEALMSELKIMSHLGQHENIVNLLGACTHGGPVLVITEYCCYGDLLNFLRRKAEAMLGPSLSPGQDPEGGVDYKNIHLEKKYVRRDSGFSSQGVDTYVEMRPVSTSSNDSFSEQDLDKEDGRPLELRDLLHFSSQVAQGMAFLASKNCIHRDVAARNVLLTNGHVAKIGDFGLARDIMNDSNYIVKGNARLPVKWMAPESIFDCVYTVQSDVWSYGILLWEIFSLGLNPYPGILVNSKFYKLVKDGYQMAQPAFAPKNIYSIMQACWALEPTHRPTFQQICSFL
- Assay summary: BaF3 BCR-FMS cell proliferation assay (ATPlite)
- Settings: read-out: Inhibition of Cell Proliferation IC50, BCR/BaF3 Fms
Property measured: IC50

O=C(c1ccc(Nc2ccc(C(F)(F)F)nc2)nc1F)c1c[nH]c2ncnc(NC3CC3)c12    < 10 nM
COc1ccc(Nc2ccc(C(=O)c3c[nH]c4ncnc(N5CCOCC5)c34)c(F)n2)cn1    > 1000 nM
CCOc1ccc(Nc2ncc(Cc3c[nH]c4ncc(C)cc34)cn2)cn1    < 10 nM

# batch size: 8; output IC50 per entry
1. CNc1ncnc2[nH]cc(C(=O)c3ccc(NC4CCCCC4)nc3Cl)c12
2. CNc1ncnc2[nH]cc(C(=O)c3ccc(NC4CCC(F)(F)CC4)nc3Cl)c12
3. CCc1ccc(Nc2ccc(Cc3c[nH]c4ncc(C)cc34)c(F)n2)cn1
4. O=C(c1ccc(NC2CCC(F)(F)CC2)nc1F)c1c[nH]c2ncnc(NCC(F)(F)F)c12
5. Fc1nc(Nc2ccc(C3CC3)nc2)ccc1Cc1c[nH]c2ncccc12
6. CCCNc1ncnc2[nH]cc(C(=O)c3ccc(Nc4ccc(C)nc4)nc3F)c12
7. CCOc1ccc(Nc2ccc(Cc3c[nH]c4ncc(C)cc34)c(F)n2)cn1
8. CCOc1ncnc2[nH]cc(C(=O)c3ccc(Nc4ccc(OC)nc4)nc3F)c12

1: < 100 nM; 2: < 100 nM; 3: < 10 nM; 4: < 100 nM; 5: < 10 nM; 6: < 10 nM; 7: < 10 nM; 8: < 100 nM

I would be grateful if you could provide IC50 for each of the following entries.
1. CCNc1ncnc2[nH]cc(C(=O)c3ccc(Nc4ccc(CC)nc4)nc3F)c12
2. COc1cncc(Nc2ccc(C(=O)c3c[nH]c4ncnc(NCC(F)(F)F)c34)c(F)n2)c1

["< 10 nM", "< 100 nM"]

---

Reported IC50 values, CYP2C19 (Homo sapiens, UniProt P33261).

# example entries with known answers
CCn1cc(Nc2ccc(Cc3c[nH]c4ncnc(OCCOC)c34)c(F)n2)cn1 [Compound P-4014]    > 10 µM
COCCCNc1ncnc2[nH]cc(C(=O)c3ccc(Nc4ccc(OC)nc4)nc3F)c12 [Compound P-4079]    5 to 10 µM
CC(C)Nc1ncnc2[nH]cc(C(=O)c3ccc(NC4CCCCC4)nc3F)c12 [Compound P-4101]    5 to 10 µM
CNc1ncnc2[nH]cc(C(=O)c3ccc(NC4CCC(F)(F)CC4)nc3F)c12 [Compound P-4063]    > 10 µM

Can you give me IC50 for all of these, one by one?
1. Cc1ccc(Nc2ccc(C(=O)c3c[nH]c4ncc(Cl)cc34)c(F)n2)cn1 [Compound P-3044]
2. CNc1ncnc2[nH]cc(C(=O)c3ccc(Nc4ccc(OC)nc4)nc3F)c12 [Compound P-4083]

["> 10 µM", "> 10 µM"]

---

Parameter IC50, tested on c-Kit kinase (Homo sapiens), listed per item.
Sequence (P10721 26-976): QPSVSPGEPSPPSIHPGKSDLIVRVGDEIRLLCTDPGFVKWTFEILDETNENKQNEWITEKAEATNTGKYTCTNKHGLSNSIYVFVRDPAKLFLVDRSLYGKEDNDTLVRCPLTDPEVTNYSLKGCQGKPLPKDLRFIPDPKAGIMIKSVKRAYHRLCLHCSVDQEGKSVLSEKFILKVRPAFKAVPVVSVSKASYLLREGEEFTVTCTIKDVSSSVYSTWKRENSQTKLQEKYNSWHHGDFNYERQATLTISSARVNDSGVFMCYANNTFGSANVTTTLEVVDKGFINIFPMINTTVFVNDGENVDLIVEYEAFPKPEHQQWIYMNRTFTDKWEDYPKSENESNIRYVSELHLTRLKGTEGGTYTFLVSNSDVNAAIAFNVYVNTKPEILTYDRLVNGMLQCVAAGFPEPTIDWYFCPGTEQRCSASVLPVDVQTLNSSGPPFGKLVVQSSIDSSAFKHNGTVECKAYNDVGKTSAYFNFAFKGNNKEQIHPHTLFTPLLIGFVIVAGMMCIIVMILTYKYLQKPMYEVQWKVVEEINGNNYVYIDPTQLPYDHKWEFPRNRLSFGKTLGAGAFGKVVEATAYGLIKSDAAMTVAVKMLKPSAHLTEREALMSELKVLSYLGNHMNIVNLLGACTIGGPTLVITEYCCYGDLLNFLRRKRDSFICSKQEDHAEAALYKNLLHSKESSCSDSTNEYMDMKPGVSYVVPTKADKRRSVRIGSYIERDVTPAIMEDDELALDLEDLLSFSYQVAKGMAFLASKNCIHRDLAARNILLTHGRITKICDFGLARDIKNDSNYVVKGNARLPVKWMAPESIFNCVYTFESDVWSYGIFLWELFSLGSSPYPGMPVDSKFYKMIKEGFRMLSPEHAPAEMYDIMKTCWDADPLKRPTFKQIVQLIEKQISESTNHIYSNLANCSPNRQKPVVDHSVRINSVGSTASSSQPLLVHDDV

Please review the following examples before continuing.
Cc1cnc2[nH]cc(Cc3cnc(Nc4ccc(C(F)(F)F)nc4)nc3)c2c1    < 10 nM
CCc1ccc(Nc2ccc(C(=O)c3c[nH]c4ncnc(NC5CCC5)c34)c(F)n2)cn1    < 100 nM
Cc1cncc(Nc2ccc(Cc3c[nH]c4ncnc(C5CC5)c34)c(F)n2)c1    < 1000 nM

Quick one: IC50 of CNc1ncnc2[nH]cc(C(=O)c3ccc(Nc4ccc(C5CC5)nc4)nc3F)c12 ?
< 10 nM

---

- Experimental target: BCR-NTRK1 BaF3 cells (Homo sapiens, UniProt P04629)
- Construct: fused on or other part: P11274 (Breakpoint cluster region protein)
- Assay summary: BaF3 BCR-NTRK1 cell proliferation assay (ATPlite)
- Settings: read-out: Inhibition of Cell Proliferation IC50, BCR/BaF3 TrkA
Property measured: IC50

# map each molecule to its IC50
1. CCn1cc(Nc2ccc(C(=O)c3c[nH]c4ncnc(C5CC5)c34)c(F)n2)cn1 [Compound P-4037]
2. O=C(c1ccc(NC2CCC(F)(F)CC2)nc1Cl)c1c[nH]c2ncnc(NC3CC3)c12 [Compound P-4059]

< 100 nM
< 1000 nM

Give IC50 for each listed item.
1. Cc1ccc(Nc2ccc(C(=O)c3c[nH]c4ncc(Cl)cc34)c(F)n2)cn1 [Compound P-3044]
2. COc1ccc(Nc2ccc(C(=O)c3c[nH]c4ncnc(NC5CCC5)c34)c(F)n2)cn1 [Compound P-4076]
3. COc1ccc(Nc2ncc(Cc3c[nH]c4ncc(C)cc34)cn2)cc1F [Compound P-3023]

1: < 1000 nM; 2: < 10 nM; 3: < 1000 nM

---

- Experimental target: BCR-NTRK1 BaF3 cells (Homo sapiens, UniProt P04629)
- Construct: fused on or other part: P11274 (Breakpoint cluster region protein)
- Assay summary: BaF3 BCR-NTRK1 cell proliferation assay (ATPlite)
- Settings: read-out: Inhibition of Cell Proliferation IC50, BCR/BaF3 TrkA
I'd be grateful if you could share measured IC50 for these entries.

Cc1ccc(Nc2ccc(C(=O)c3c[nH]c4ncnc(C5CC5)c34)c(F)n2)cn1 [Compound P-4031]    < 100 nM
CNc1ncnc2[nH]cc(C(=O)c3ccc(Nc4ccc(C(F)(F)F)nc4)nc3F)c12 [Compound P-4092]    < 10 nM

Quick one: give me IC50 for each item below, same order please.
1. Cc1ccc(Nc2ccc(C(=O)c3c[nH]c4ncnc(NC5CCCCC5)c34)c(F)n2)cn1 [Compound P-4111]
2. CCc1ccc(Nc2ccc(C(=O)c3c[nH]c4ncnc(NCC5CC5)c34)c(F)n2)cn1 [Compound P-4118]
3. O=C(c1cnc(NC2CCC(F)(F)CC2)c(F)c1)c1c[nH]c2ncnc(NCC(F)(F)F)c12 [Compound P-4052]
4. O=C(c1cnc(NC2CCC(F)(F)CC2)c(F)c1)c1c[nH]c2ncnc(NC3CC3)c12 [Compound P-4053]

1. < 10 nM
2. < 10 nM
3. < 1000 nM
4. < 10 nM

Could I get IC50 for every one of these entries?
1. COc1cncc(Nc2ccc(C(=O)c3c[nH]c4ncnc(NC5CC5)c34)c(F)n2)c1 [Compound P-4107]
2. CNc1ncnc2[nH]cc(C(=O)c3ccc(NC4CCC(F)(F)CC4)nc3Cl)c12 [Compound P-4058]
3. COc1ccc(Nc2ccc(Cc3c[nH]c4ncnc(C)c34)c(F)n2)cn1 [Compound P-4002]
4. CCCCNc1ncnc2[nH]cc(C(=O)c3ccc(Nc4ccc(OC)nc4)nc3F)c12 [Compound P-4080]
5. CCn1cc(Nc2ncc(Cc3c[nH]c4ncc(C)cc34)cn2)cn1 [Compound P-3036]
6. COc1ccc(Nc2ccc(Cc3c[nH]c4ncnc(C5CC5)c34)c(F)n2)cn1 [Compound P-4023]
7. Fc1cccc(Nc2ncc(Cc3c[nH]c4ncc(Cl)cc34)cn2)c1 [Compound P-3017]
8. Cc1ccc(Nc2ccc(C(=O)c3c[nH]c4ncnc(NCC(F)(F)F)c34)c(F)n2)cn1 [Compound P-4112]

1: < 100 nM; 2: < 1000 nM; 3: < 1000 nM; 4: < 10 nM; 5: < 1000 nM; 6: < 100 nM; 7: > 10000 nM; 8: < 100 nM

// each listed compound needs a value for IC50
1. Cc1cnc2[nH]cc(Cc3cnc(Nc4ccc(C(C)(C)C)cc4)nc3)c2c1 [Compound P-3030]
2. CCOc1ncnc2[nH]cc(C(=O)c3ccc(Nc4ccc(OC)nc4)nc3F)c12 [Compound P-4025]
3. CCc1ccc(Nc2ccc(C(=O)c3c[nH]c4ncnc(NCCOC)c34)c(F)n2)cn1 [Compound P-4119]
4. Cc1cnc2[nH]cc(Cc3cnc(Nc4ccc(F)cc4)nc3)c2c1 [Compound P-3010]

1. < 10 nM
2. < 100 nM
3. < 10 nM
4. > 10000 nM

Item COc1ccc(Nc2ncc(Cc3c[nH]c4ncc(C)cc34)cn2)cc1 [Compound P-3021] with BCR-NTRK1 BaF3 cells (Homo sapiens, UniProt P04629) - IC50?
< 1000 nM
